- System: A549
- ASSAY PROCEDURE: Cytotoxicity against human A549 cells
- Type: functional, cell-based
MEASURED PROPERTY: IC50

INSERT INTO measurements (mol, result) VALUES
  ('CC(C)=C[C@H](O)C[C@@H](C)[C@H]1CC[C@@]2(C)[C@@H]3CC[C@H]4[C@](C)(CO)[C@@H](OS(=O)(=O)O)CC[C@@]45C[C@@]35CC[C@]12C', '> 10 µg/mL'),
  ('COC(=O)[C@]1(C)[C@@H](OS(=O)(=O)[O-])CC[C@]23C[C@]24CC[C@]2(C)[C@@H]([C@H](C)CC(=O)C=C(C)C)CC[C@@]2(C)[C@@H]4CC[C@@H]13.COC(=O)[C@]1(C)[C@@H](OS(=O)(=O)[O-])CC[C@]23C[C@]24CC[C@]2(C)[C@@H]([C@H](C)CC(=O)C=C(C)C)CC[C@@]2(C)[C@@H]4CC[C@@H]13.[Ca+2]', '> 10 µg/mL'),
  ('COC(=O)[C@@H]1[C@@H](OS(=O)(=O)O)CC[C@]2(C)C3=C(CC[C@@H]12)[C@]1(C)CC[C@H]([C@H](C)CC(=O)C=C(C)C)[C@@]1(C)CC3', '> 1 µg/mL'),
  ('COC(=O)[C@]1(C)[C@@H](OS(=O)(=O)O)CC[C@]23C[C@]24CC[C@]2(C)[C@@H]([C@H](C)C[C@@H](O)C=C(C)C)CC[C@@]2(C)[C@@H]4CC[C@@H]13', '> 10 µg/mL'),
  ('CC(C)=CC(=O)C[C@@H](C)[C@H]1CC[C@@]2(C)[C@@H]3CC[C@H]4[C@](C)(CO)[C@@H](OS(=O)(=O)O)CC[C@@]45C[C@@]35CC[C@]12C', '> 2 µg/mL'),
  ('CC(C)=CC(=O)C[C@@H](C)[C@H]1CC[C@@]2(C)[C@@H]3CC[C@H]4C(C)(C)[C@@H](OS(=O)(=O)O)CC[C@@]45C[C@@]35CC[C@]12C', '> 10 µg/mL'),
  ('COC(=O)[C@@H]1[C@@H](OS(=O)(=O)O)CC[C@]23C[C@]24CC[C@]2(C)[C@@H]([C@H](C)CC(=O)C=C(C)C)CC[C@@]2(C)[C@@H]4CC[C@@H]13', '> 1 µg/mL'),
  ('COC(=O)[C@@H]1[C@@H](OS(=O)(=O)O)CC[C@]23C[C@]24CC[C@]2(C)[C@@H]([C@H](C)C[C@@H](O)C=C(C)C)CC[C@@]2(C)[C@@H]4CC[C@@H]13', '> 1 µg/mL'),
  ('COC(=O)[C@]1(C)[C@@H](OS(=O)(=O)[O-])CC[C@]23C[C@]24CC[C@]2(C)[C@@H]([C@H](C)CC(=O)C=C(C)C)CC[C@@]2(C)[C@@H]4CC[C@@H]13.[Na+]', '> 10 µg/mL');

====

- Test system: A549
- ASSAY PROCEDURE: Cytotoxicity against human A549 cells
- Assay type: functional, cell-based
MEASURED PROPERTY: IC50

INSERT INTO assay_data (mol, result) VALUES
  ('COC(=O)[C@]1(C)[C@@H](OS(=O)(=O)O)CC[C@]23C[C@]24CC[C@]2(C)[C@@H]([C@H](C)CC(=O)C=C(C)C)CC[C@@]2(C)[C@@H]4CC[C@@H]13', '> 10 µg/mL'),
  ('COC(=O)[C@@H]1[C@@H](OS(=O)(=O)O)CC[C@]2(C)C3=C(CC[C@@H]12)[C@]1(C)CC[C@H]([C@H](C)C[C@@H](O)C=C(C)C)[C@@]1(C)CC3', '> 2 µg/mL'),
  ('CC(C)=C[C@H](O)C[C@@H](C)[C@H]1CC[C@@]2(C)[C@@H]3CC[C@H]4C(C)(C)[C@@H](OS(=O)(=O)O)CC[C@@]45C[C@@]35CC[C@]12C', '> 2 µg/mL'),
  ('COC(=O)[C@]1(C)[C@@H](OS(=O)(=O)[O-])CC[C@]23C[C@]24CC[C@]2(C)[C@@H]([C@H](C)CC(=O)C=C(C)C)CC[C@@]2(C)[C@@H]4CC[C@@H]13.COC(=O)[C@]1(C)[C@@H](OS(=O)(=O)[O-])CC[C@]23C[C@]24CC[C@]2(C)[C@@H]([C@H](C)CC(=O)C=C(C)C)CC[C@@]2(C)[C@@H]4CC[C@@H]13.[Mg+2]', '> 10 µg/mL');

====

Each entry below carries its reported IC50.
- ASSAY PROCEDURE: Cytotoxicity against human MEL28 cells
- Assay type: functional, cell-based
- CONDITION LABEL: SK-MEL-28
MEASURED PROPERTY: IC50

INSERT INTO assay_data (mol, result) VALUES
  ('CC(C)=C[C@H](O)C[C@@H](C)[C@H]1CC[C@@]2(C)[C@@H]3CC[C@H]4C(C)(C)[C@@H](OS(=O)(=O)O)CC[C@@]45C[C@@]35CC[C@]12C', '> 2 µg/mL'),
  ('COC(=O)[C@]1(C)[C@@H](OS(=O)(=O)[O-])CC[C@]23C[C@]24CC[C@]2(C)[C@@H]([C@H](C)CC(=O)C=C(C)C)CC[C@@]2(C)[C@@H]4CC[C@@H]13.COC(=O)[C@]1(C)[C@@H](OS(=O)(=O)[O-])CC[C@]23C[C@]24CC[C@]2(C)[C@@H]([C@H](C)CC(=O)C=C(C)C)CC[C@@]2(C)[C@@H]4CC[C@@H]13.[Ca+2]', '> 10 µg/mL'),
  ('CC(C)=CC(=O)C[C@@H](C)[C@H]1CC[C@@]2(C)[C@@H]3CC[C@H]4C(C)(C)[C@@H](OS(=O)(=O)O)CC[C@@]45C[C@@]35CC[C@]12C', '> 10 µg/mL'),
  ('COC(=O)[C@]1(C)[C@@H](OS(=O)(=O)O)CC[C@]23C[C@]24CC[C@]2(C)[C@@H]([C@H](C)C[C@@H](O)C=C(C)C)CC[C@@]2(C)[C@@H]4CC[C@@H]13', '> 10 µg/mL'),
  ('CC(C)=CC(=O)C[C@@H](C)[C@H]1CC[C@@]2(C)[C@@H]3CC[C@H]4[C@](C)(CO)[C@@H](OS(=O)(=O)O)CC[C@@]45C[C@@]35CC[C@]12C', '> 2 µg/mL'),
  ('COC(=O)[C@@H]1[C@@H](OS(=O)(=O)O)CC[C@]23C[C@]24CC[C@]2(C)[C@@H]([C@H](C)CC(=O)C=C(C)C)CC[C@@]2(C)[C@@H]4CC[C@@H]13', '> 1 µg/mL'),
  ('COC(=O)[C@]1(C)[C@@H](OS(=O)(=O)O)CC[C@]23C[C@]24CC[C@]2(C)[C@@H]([C@H](C)CC(=O)C=C(C)C)CC[C@@]2(C)[C@@H]4CC[C@@H]13', '> 10 µg/mL'),
  ('COC(=O)[C@]1(C)[C@@H](OS(=O)(=O)[O-])CC[C@]23C[C@]24CC[C@]2(C)[C@@H]([C@H](C)CC(=O)C=C(C)C)CC[C@@]2(C)[C@@H]4CC[C@@H]13.COC(=O)[C@]1(C)[C@@H](OS(=O)(=O)[O-])CC[C@]23C[C@]24CC[C@]2(C)[C@@H]([C@H](C)CC(=O)C=C(C)C)CC[C@@]2(C)[C@@H]4CC[C@@H]13.[Mg+2]', '> 10 µg/mL'),
  ('COC(=O)[C@@H]1[C@@H](OS(=O)(=O)O)CC[C@]23C[C@]24CC[C@]2(C)[C@@H]([C@H](C)C[C@@H](O)C=C(C)C)CC[C@@]2(C)[C@@H]4CC[C@@H]13', '> 1 µg/mL');

====

- ASSAY PROCEDURE: Cytotoxicity against human MEL28 cells
- Type: functional, cell-based
- CONDITION LABEL: SK-MEL-28
Each entry below carries its reported IC50.
MEASURED PROPERTY: IC50

INSERT INTO assay_data (mol, result) VALUES
  ('COC(=O)[C@@H]1[C@@H](OS(=O)(=O)O)CC[C@]2(C)C3=C(CC[C@@H]12)[C@]1(C)CC[C@H]([C@H](C)C[C@@H](O)C=C(C)C)[C@@]1(C)CC3', '> 2 µg/mL'),
  ('COC(=O)[C@@H]1[C@@H](OS(=O)(=O)O)CC[C@]2(C)C3=C(CC[C@@H]12)[C@]1(C)CC[C@H]([C@H](C)CC(=O)C=C(C)C)[C@@]1(C)CC3', '> 1 µg/mL'),
  ('CC(C)=C[C@H](O)C[C@@H](C)[C@H]1CC[C@@]2(C)[C@@H]3CC[C@H]4[C@](C)(CO)[C@@H](OS(=O)(=O)O)CC[C@@]45C[C@@]35CC[C@]12C', '> 10 µg/mL'),
  ('COC(=O)[C@]1(C)[C@@H](OS(=O)(=O)[O-])CC[C@]23C[C@]24CC[C@]2(C)[C@@H]([C@H](C)CC(=O)C=C(C)C)CC[C@@]2(C)[C@@H]4CC[C@@H]13.[Na+]', '> 10 µg/mL');
